Origin of values: patent US20090170923A1

Tested on: HCV genotype 1b strain Con1 replicon (ET replicon line, Huh7 cells)
test_details: HCV ET replicon luciferase assay
Assay type: cell-based
experimental_setup: Hepatitis C virus, Huh-7; Huh7 cells stably transfected with HCV genotype 1b Con1 replicon; firefly luciferase readout; 72 hours incubation
Counter-ions that a name gives are not always drawn.
measure: pIC50
On this scale, pIC50 is minus log10 of a concentration expressed in M (mol/L).

Take a look at these entries with their results.
Brc1ccc2[nH]c3c(c2c1)CCC[C@H]3NC1Cc2ccccc2C1 [Example 27, hydrochloride salt] :: 7.27
C[C@@H](N[C@@H]1CCCc2c1[nH]c1ccc(Br)cc21)c1ccccc1 [Example 31, Hydrochloride Salt] :: 7.89

Now examine the next entry.
Recorded result, C[C@H](N[C@@H]1CCCc2c1[nH]c1ccc(Br)cc21)c1ccccc1 [Example 36, Hydrochloride Salt] , pIC50: 8.10
